- MEASUREMENT DESCRIPTION: MTT cytotoxicity assay, LO2
- Format: cell-based
- MEASUREMENT PARAMETERS: human, LO2 cells (immortal hepatic cell line), non-tumoral cell
MEASURED PROPERTY: IC50 at 72 h

Using the record for "COc1cc(O)c2c(=O)cc(-c3ccccc3)oc2c1/C=C/C(C)(C)O" , report its IC50 at 72 h. 21.7 µM

Using the record for COc1cc(OC(C)=O)c(C2COC(C)(C)C2=O)c2oc(-c3ccccc3)cc(=O)c12 (stereo not shown) , report its IC50 at 72 h. > 100 µM

Using the record for "COc1cc(OC)c2c(=O)cc(-c3ccccc3)oc2c1C1=COC(C)(C)C1=O" , report its IC50 at 72 h. > 100 µM

Using the record for "COc1cc(O)c2c(=O)cc(-c3ccccc3)oc2c1/C=C/C(C)=O" , report its IC50 at 72 h. > 100 µM

---

- MEASUREMENT DESCRIPTION: MTT cytotoxicity assay, BEAS
- Type: cell-based
- MEASUREMENT PARAMETERS: human, non-tumoral cell
Could you please report measured IC50 at 72 h for the items listed next?

Using the record for "COc1cc(O)c2c(=O)cc(-c3ccccc3)oc2c1/C=C/C(C)(C)O" , report its IC50 at 72 h. 24.5 µM

Using the record for "COc1cc(OC)c2c(=O)cc(-c3ccccc3)oc2c1C1=COC(C)(C)C1=O" , report its IC50 at 72 h. > 100 µM

Using the record for "COc1cc(O)c2c(=O)cc(-c3ccccc3)oc2c1/C=C/C(C)=O" , report its IC50 at 72 h. > 100 µM

Using the record for COc1cc(OC(C)=O)c(C2COC(C)(C)C2=O)c2oc(-c3ccccc3)cc(=O)c12 (stereo not shown) , report its IC50 at 72 h. > 100 µM

---

- MEASUREMENT DESCRIPTION: MTT cytotoxicity, summary over the four cell-lines
- Assay type: cell-based
- MEASUREMENT PARAMETERS: human, two non-tumoral and two cancerous cell-lines; read-out: Cytotoxicity IC50 against four cell-lines
MEASURED PROPERTY: IC50 at 72 h

Using the record for COc1cc(O)c2c(=O)cc(-c3ccccc3)oc2c1/C=C/C(C)(C)O [Compound 1] , report its IC50 at 72 h. 21 to 100 µM

---

- MEASUREMENT DESCRIPTION: MTT cytotoxicity assay, A549
- Type: cell-based
- MEASUREMENT PARAMETERS: human, A549 cells (adenocarcinomic alveolar basal epithelial cells), cancer cell
MEASURED PROPERTY: IC50 at 72 h

Using the record for COc1cc(O)c2c(=O)cc(-c3ccccc3)oc2c1/C=C/C(C)(C)O [Compound 1] , report its IC50 at 72 h. 76.1 µM

Using the record for COc1cc(OC(C)=O)c(C2COC(C)(C)C2=O)c2oc(-c3ccccc3)cc(=O)c12 (stereo not shown) [Compound 4] , report its IC50 at 72 h. > 100 µM

Using the record for COc1cc(O)c2c(=O)cc(-c3ccccc3)oc2c1/C=C/C(C)=O [Compound 2] , report its IC50 at 72 h. > 100 µM

Using the record for COc1cc(OC)c2c(=O)cc(-c3ccccc3)oc2c1C1=COC(C)(C)C1=O [Compound 9, tachrosin] , report its IC50 at 72 h. > 100 µM

---

- Tested on: two non-tumoral and two cancerous cell-lines (LO2, BEAS, A549, HepG2)
- MEASUREMENT DESCRIPTION: MTT cytotoxicity, summary over the four cell-lines
- Format: cell-based
- MEASUREMENT PARAMETERS: two non-tumoral and two cancerous cell-lines; read-out: Cytotoxicity IC50 against four cell-lines
MEASURED PROPERTY: IC50

Using the record for "COc1cc(O)c2c(=O)cc(-c3ccccc3)oc2c1/C=C/C(C)(C)O" , report its IC50. > 21 µM

FYI, the data here is from paper PMC6151588.
